test system: PANC-1 complex spheroid growth, percent test/control; assay: Anticancer human tumor PANC-1 cell line growth inhibition [Asc]; conditions: curve of first compound; second compound 0.0949 µM;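 further: spheroids exposed to agents for 7 days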
OBSERVABLE: IC50

Cc1nc(N2CCC3(CC2)COC(C)C3N)c(CO)nc1Sc1ccnc(N)c1Cl (centres undefined) + CCN1C(C(=O)NC23CCC(C(=O)O)(CC2)CC3)C(c2cccc(Cl)c2F)C2(C(=O)Nc3cc(Cl)ccc32)C12CCCCC2; > 3000 nM

Now look at this entry.
// query Using the record for CCN1CCN(Cc2ccc(Nc3ncc(F)c(-c4cc(F)c5nc(C)n(C(C)C)c5c4)n3)nc2)CC1 + CCN1C(C(=O)NC23CCC(C(=O)O)(CC2)CC3)C(c2cccc(Cl)c2F)C2(C(=O)Nc3cc(Cl)ccc32)C12CCCCC2 , report its IC50.
// result > 1000 nM

----------
Test system: PANC-1 complex spheroid growth, percent test/control
Assay: Anticancer human tumor PANC-1 cell line growth inhibition [Asc];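 further: spheroids exposed to agents for 7 days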;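 on viability, T/C: percent viability relative to DMSO vehicle wells taken as 100%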
Settings: second compound 0.1 µM; first compound 0.3 µM; stronger effect = lower value
Text: Multicellular complex tumor spheroid response to apoptosis pathway targeting inhibitors Alrizomadlin, Pelcitoclax, and Dasminapant in combination with a variety of drugs and investigational agents in selected tumor cell lines […] Compounds. […] If the clinical Cmax for an agent had not been determined, the highest concentration tested was 10 microM. […]
# viability, T/C listing for each entry below
# unit: % | format: bare number

Answered cases to consult:
NC(=O)C(=Cn1cnc(-c2cc(C(F)(F)F)cc(C(F)(F)F)c2)n1)c1cncnc1 + CNC(C)C(=O)NC1CN(S(=O)(=O)c2cccc(S(=O)(=O)N3CCC4CCC(C(=O)NC(c5ccccc5)c5ccccc5)N4C(=O)C(NC(=O)C(C)NC)C3)c2)CCC2CCC(C(=O)NC(c3ccccc3)c3ccccc3)N2C1=O; 80.5
Cc1nc(N2CCC3(CC2)COC(C)C3N)c(CO)nc1Sc1ccnc(N)c1Cl (stereo unspecified) + Cc1c(S(C)(=O)=O)c(-c2cc(F)cc(N3CCN(c4ccc(NS(=O)(=O)c5ccc(NC(CCN6CCC(C(=O)OCCCP(=O)(O)O)CC6)CSc6ccccc6)c(S(=O)(=O)C(F)(F)F)c5)cc4)CC3)c2)c(-c2ccc(Cl)cc2)n1C(C)C; 90.1
CCN1C(C(=O)NC23CCC(C(=O)O)(CC2)CC3)C(c2cccc(Cl)c2F)C2(C(=O)Nc3cc(Cl)ccc32)C12CCCCC2 (stereo unspecified) + Cc1c(S(C)(=O)=O)c(-c2cc(F)cc(N3CCN(c4ccc(NS(=O)(=O)c5ccc(NC(CCN6CCC(C(=O)OCCCP(=O)(O)O)CC6)CSc6ccccc6)c(S(=O)(=O)C(F)(F)F)c5)cc4)CC3)c2)c(-c2ccc(Cl)cc2)n1C(C)C; 96.8
Cc1nc(N2CCC3(CC2)COC(C)C3N)c(CO)nc1Sc1ccnc(N)c1Cl (stereo unspecified) + CNC(C)C(=O)NC1CN(S(=O)(=O)c2cccc(S(=O)(=O)N3CCC4CCC(C(=O)NC(c5ccccc5)c5ccccc5)N4C(=O)C(NC(=O)C(C)NC)C3)c2)CCC2CCC(C(=O)NC(c3ccccc3)c3ccccc3)N2C1=O; 83.8
CCN1C(C(=O)NC23CCC(C(=O)O)(CC2)CC3)C(c2cccc(Cl)c2F)C2(C(=O)Nc3cc(Cl)ccc32)C12CCCCC2 (stereo unspecified) + CNC(C)C(=O)NC1CN(S(=O)(=O)c2cccc(S(=O)(=O)N3CCC4CCC(C(=O)NC(c5ccccc5)c5ccccc5)N4C(=O)C(NC(=O)C(C)NC)C3)c2)CCC2CCC(C(=O)NC(c3ccccc3)c3ccccc3)N2C1=O; 109

Now look at this entry.
// query Using the record for NC(=O)C(=Cn1cnc(-c2cc(C(F)(F)F)cc(C(F)(F)F)c2)n1)c1cncnc1 + Cc1c(S(C)(=O)=O)c(-c2cc(F)cc(N3CCN(c4ccc(NS(=O)(=O)c5ccc(NC(CCN6CCC(C(=O)OCCCP(=O)(O)O)CC6)CSc6ccccc6)c(S(=O)(=O)C(F)(F)F)c5)cc4)CC3)c2)c(-c2ccc(Cl)cc2)n1C(C)C , report its viability, T/C.
// result 84.3

----------
tested on: PANC-1 complex spheroid growth, percent test/control; experiment: Anticancer human tumor PANC-1 cell line growth inhibition [Asc]; details: second compound 0.03 µM; first compound 0.01 µM; stronger effect = lower value;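 further: spheroids exposed to agents for 7 days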;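 on viability, T/C: percent viability relative to DMSO vehicle wells taken as 100%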
# viability, T/C listing for each entry below
# unit: % | format: bare number

Cn1ncnc1[C@H]1c2n[nH]c(=O)c3cc(F)cc(c23)N[C@@H]1c1ccc(F)cc1 + CCN1C(C(=O)NC23CCC(C(=O)O)(CC2)CC3)C(c2cccc(Cl)c2F)C2(C(=O)Nc3cc(Cl)ccc32)C12CCCCC2; 98.9
O=C(c1ccc(F)c(F)c1Nc1ccc(I)cc1F)N1CC(O)([C@@H]2CCCCN2)C1 + CCN1C(C(=O)NC23CCC(C(=O)O)(CC2)CC3)C(c2cccc(Cl)c2F)C2(C(=O)Nc3cc(Cl)ccc32)C12CCCCC2; 98.3
CNC(C)C(=O)NC1CN(S(=O)(=O)c2cccc(S(=O)(=O)N3CCC4CCC(C(=O)NC(c5ccccc5)c5ccccc5)N4C(=O)C(NC(=O)C(C)NC)C3)c2)CCC2CCC(C(=O)NC(c3ccccc3)c3ccccc3)N2C1=O (stereo unspecified) + CCN1C(C(=O)NC23CCC(C(=O)O)(CC2)CC3)C(c2cccc(Cl)c2F)C2(C(=O)Nc3cc(Cl)ccc32)C12CCCCC2; 93.9
COc1c(OCCCN2CCOCC2)ccc2c3n(c(=NC(=O)c4cnc(N)nc4)nc12)CCN3 + CCN1C(C(=O)NC23CCC(C(=O)O)(CC2)CC3)C(c2cccc(Cl)c2F)C2(C(=O)Nc3cc(Cl)ccc32)C12CCCCC2; 91.1
NC1CCC(NC2CC2c2ccccc2)CC1 (stereo unspecified) + CCN1C(C(=O)NC23CCC(C(=O)O)(CC2)CC3)C(c2cccc(Cl)c2F)C2(C(=O)Nc3cc(Cl)ccc32)C12CCCCC2; 87

// query Using the record for CCN1CCN(Cc2ccc(Nc3ncc(F)c(-c4cc(F)c5nc(C)n(C(C)C)c5c4)n3)nc2)CC1 + CCN1C(C(=O)NC23CCC(C(=O)O)(CC2)CC3)C(c2cccc(Cl)c2F)C2(C(=O)Nc3cc(Cl)ccc32)C12CCCCC2 , report its viability, T/C.
// result 97.8

----------
tested on: PANC-1 complex spheroid growth, percent test/control; assay: Anticancer human tumor PANC-1 cell line growth inhibition [Asc]; details: curve of first compound; second compound 0.01 µM;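 further: spheroids exposed to agents for 7 days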
OBSERVABLE: pIC50
Worth noting: pIC50 values are minus log10 of concentrations stated in mol/L.

// query Using the record for C=C(F)C(=O)N1CCN(c2nc(OCC3CCCN3C)nc3c2CCN(c2cccc4cccc(Cl)c24)C3)CC1CC#N (configuration not stated) + CNC(C)C(=O)NC1CN(S(=O)(=O)c2cccc(S(=O)(=O)N3CCC4CCC(C(=O)NC(c5ccccc5)c5ccccc5)N4C(=O)C(NC(=O)C(C)NC)C3)c2)CCC2CCC(C(=O)NC(c3ccccc3)c3ccccc3)N2C1=O , report its pIC50.
// result 5.28

----------
# viability, T/C listing for each entry below
tested on: PANC-1 complex spheroid growth, percent test/control; experiment: Anticancer human tumor PANC-1 cell line growth inhibition [Asc]; details: second compound 0.3 µM; first compound 3.16 µM; stronger effect = lower value;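 further: spheroids exposed to agents for 7 days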;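 on viability, T/C: percent viability relative to DMSO vehicle wells taken as 100%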
# unit: % | format: bare number

Answered cases to consult:
C=C(F)C(=O)N1CCN(c2nc(OCC3CCCN3C)nc3c2CCN(c2cccc4cccc(Cl)c24)C3)CC1CC#N (centres undefined) + CCN1C(C(=O)NC23CCC(C(=O)O)(CC2)CC3)C(c2cccc(Cl)c2F)C2(C(=O)Nc3cc(Cl)ccc32)C12CCCCC2; 100
C=CC(=O)N1CCN(c2nc(=O)n(-c3c(C)ccnc3C(C)C)c3nc(-c4c(O)cccc4F)c(F)cc23)C(C)C1 (centres undefined) + CCN1C(C(=O)NC23CCC(C(=O)O)(CC2)CC3)C(c2cccc(Cl)c2F)C2(C(=O)Nc3cc(Cl)ccc32)C12CCCCC2; 93.6
O=C(c1cc(Cc2n[nH]c(=O)c3ccccc23)ccc1F)N1CCN(C(=O)C2CC2)CC1 + CCN1C(C(=O)NC23CCC(C(=O)O)(CC2)CC3)C(c2cccc(Cl)c2F)C2(C(=O)Nc3cc(Cl)ccc32)C12CCCCC2; 105

Now look at this entry.
// query Using the record for C#Cc1c(F)ccc2cc(O)cc(-c3ncc4c(N5CC6CCC(C5)N6)nc(OCC56CCCN5CC(F)C6)nc4c3F)c12 (centres undefined) + CCN1C(C(=O)NC23CCC(C(=O)O)(CC2)CC3)C(c2cccc(Cl)c2F)C2(C(=O)Nc3cc(Cl)ccc32)C12CCCCC2 , report its viability, T/C.
// result 98.7

----------
system: PANC-1 complex spheroid growth, percent test/control; experiment: Anticancer human tumor PANC-1 cell line growth inhibition [Asc]; conditions: curve of first compound; second compound 3.16 µM;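 further: spheroids exposed to agents for 7 days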
pIC50: −log10 of the molar value.
# pIC50 listing for each entry below

Cn1ncnc1[C@H]1c2n[nH]c(=O)c3cc(F)cc(c23)N[C@@H]1c1ccc(F)cc1 + Cc1c(S(C)(=O)=O)c(-c2cc(F)cc(N3CCN(c4ccc(NS(=O)(=O)c5ccc(NC(CCN6CCC(C(=O)OCCCP(=O)(O)O)CC6)CSc6ccccc6)c(S(=O)(=O)C(F)(F)F)c5)cc4)CC3)c2)c(-c2ccc(Cl)cc2)n1C(C)C; < 7.00
C=C(F)C(=O)N1CCN(c2nc(OCC3CCCN3C)nc3c2CCN(c2cccc4cccc(Cl)c24)C3)CC1CC#N (stereo not given) + Cc1c(S(C)(=O)=O)c(-c2cc(F)cc(N3CCN(c4ccc(NS(=O)(=O)c5ccc(NC(CCN6CCC(C(=O)OCCCP(=O)(O)O)CC6)CSc6ccccc6)c(S(=O)(=O)C(F)(F)F)c5)cc4)CC3)c2)c(-c2ccc(Cl)cc2)n1C(C)C; 5.30
Cc1nc(N2CCC3(CC2)COC(C)C3N)c(CO)nc1Sc1ccnc(N)c1Cl (stereo not given) + Cc1c(S(C)(=O)=O)c(-c2cc(F)cc(N3CCN(c4ccc(NS(=O)(=O)c5ccc(NC(CCN6CCC(C(=O)OCCCP(=O)(O)O)CC6)CSc6ccccc6)c(S(=O)(=O)C(F)(F)F)c5)cc4)CC3)c2)c(-c2ccc(Cl)cc2)n1C(C)C; < 5.52
NC(=O)C(=Cn1cnc(-c2cc(C(F)(F)F)cc(C(F)(F)F)c2)n1)c1cncnc1 + Cc1c(S(C)(=O)=O)c(-c2cc(F)cc(N3CCN(c4ccc(NS(=O)(=O)c5ccc(NC(CCN6CCC(C(=O)OCCCP(=O)(O)O)CC6)CSc6ccccc6)c(S(=O)(=O)C(F)(F)F)c5)cc4)CC3)c2)c(-c2ccc(Cl)cc2)n1C(C)C; < 6.52

// query Using the record for COc1c(OCCCN2CCOCC2)ccc2c3n(c(=NC(=O)c4cnc(N)nc4)nc12)CCN3 + Cc1c(S(C)(=O)=O)c(-c2cc(F)cc(N3CCN(c4ccc(NS(=O)(=O)c5ccc(NC(CCN6CCC(C(=O)OCCCP(=O)(O)O)CC6)CSc6ccccc6)c(S(=O)(=O)C(F)(F)F)c5)cc4)CC3)c2)c(-c2ccc(Cl)cc2)n1C(C)C , report its pIC50.
// result 6.55

// query Using the record for C#Cc1c(F)ccc2cc(O)cc(-c3ncc4c(N5CC6CCC(C5)N6)nc(OCC56CCCN5CC(F)C6)nc4c3F)c12 (stereo not given) + Cc1c(S(C)(=O)=O)c(-c2cc(F)cc(N3CCN(c4ccc(NS(=O)(=O)c5ccc(NC(CCN6CCC(C(=O)OCCCP(=O)(O)O)CC6)CSc6ccccc6)c(S(=O)(=O)C(F)(F)F)c5)cc4)CC3)c2)c(-c2ccc(Cl)cc2)n1C(C)C , report its pIC50.
// result < 5.00

// query Using the record for CCN1CCN(Cc2ccc(Nc3ncc(F)c(-c4cc(F)c5nc(C)n(C(C)C)c5c4)n3)nc2)CC1 + Cc1c(S(C)(=O)=O)c(-c2cc(F)cc(N3CCN(c4ccc(NS(=O)(=O)c5ccc(NC(CCN6CCC(C(=O)OCCCP(=O)(O)O)CC6)CSc6ccccc6)c(S(=O)(=O)C(F)(F)F)c5)cc4)CC3)c2)c(-c2ccc(Cl)cc2)n1C(C)C , report its pIC50.
// result < 6.00

// query Using the record for CCN1C(C(=O)NC23CCC(C(=O)O)(CC2)CC3)C(c2cccc(Cl)c2F)C2(C(=O)Nc3cc(Cl)ccc32)C12CCCCC2 (stereo not given) + Cc1c(S(C)(=O)=O)c(-c2cc(F)cc(N3CCN(c4ccc(NS(=O)(=O)c5ccc(NC(CCN6CCC(C(=O)OCCCP(=O)(O)O)CC6)CSc6ccccc6)c(S(=O)(=O)C(F)(F)F)c5)cc4)CC3)c2)c(-c2ccc(Cl)cc2)n1C(C)C , report its pIC50.
// result < 5.52

// query Using the record for O=C(c1cc(Cc2n[nH]c(=O)c3ccccc23)ccc1F)N1CCN(C(=O)C2CC2)CC1 + Cc1c(S(C)(=O)=O)c(-c2cc(F)cc(N3CCN(c4ccc(NS(=O)(=O)c5ccc(NC(CCN6CCC(C(=O)OCCCP(=O)(O)O)CC6)CSc6ccccc6)c(S(=O)(=O)C(F)(F)F)c5)cc4)CC3)c2)c(-c2ccc(Cl)cc2)n1C(C)C , report its pIC50.
// result < 5.00

// query Using the record for C=CC(=O)N1CCN(c2nc(=O)n(-c3c(C)ccnc3C(C)C)c3nc(-c4c(O)cccc4F)c(F)cc23)C(C)C1 (stereo not given) + Cc1c(S(C)(=O)=O)c(-c2cc(F)cc(N3CCN(c4ccc(NS(=O)(=O)c5ccc(NC(CCN6CCC(C(=O)OCCCP(=O)(O)O)CC6)CSc6ccccc6)c(S(=O)(=O)C(F)(F)F)c5)cc4)CC3)c2)c(-c2ccc(Cl)cc2)n1C(C)C , report its pIC50.
// result < 5.00
